Tested on: P. berghei ookinete development
conditionLabel: primary screen at 1 μM, replicate B
Property: % inhibition, Replicate B; scope: individual molecules
Write the value in % as a bare number.

Check out these entries, answers already filled in.
> print(dat)
                                   molecule          measuredparameter  measuredresult
1  Nc1nc(N)c2c(ccc3c2ccn3Cc2ccc3c(c2)OCO3)n1  % inhibition, Replicate B           75.32
2  Cc1nc(/N=C(\N)NC(=O)NC2CCCCC2)nc2ccccc12  % inhibition, Replicate B          102.93
3  Cl.O=C1CSc2ccc(CNC3CCN(CCc4c(Cl)cnc5ccc(Cl)cc45)CC3)nc2N1  % inhibition, Replicate B           30.41
4  COc1cc(Cn2ccc3c4c(N)nc(N)nc4ccc32)cc(OC)c1OC  % inhibition, Replicate B           58.11
5  Cc1[nH]c(C)c(-c2ccc(OCc3cc(F)cc(F)c3)nc2)c(=O)c1Br  % inhibition, Replicate B           85.99
6  Cl.Nc1nc(N)c2c(ccc3nn(S(=O)(=O)N4CCCC4)cc32)n1  % inhibition, Replicate B           26.78
7  Cc1[nH]c(C)c(-c2ccc(-c3ccc(C(F)F)cc3)nc2)c(=O)c1Cl  % inhibition, Replicate B           35.56
8  Cc1[nH]c(C)c(-c2ccc(OCc3cc(C(F)(F)F)cc(C(F)(F)F)c3)nc2)c(=O)c1Cl  % inhibition, Replicate B           98.05

Req: Could you tell me which % inhibition, Replicate B is on file for CS(=O)(=O)Cc1ccc(Nc2ncc(Cl)c(Nc3cccnc3C(N)=O)n2)cc1.Cl ?
Resp: 108.98

Req: Can you share its % inhibition, Replicate B? I mean this molecule: Cc1cccc2nc(-c3ccc(-c4cccc(CN5CCCC(N)C5)c4)s3)[nH]c12.O=C(O)C(F)(F)F (stereo not drawn)
Resp: 12.43

Req: Query (molecule): COc1cc(-c2cc(-c3ccc(S(C)(=O)=O)cc3)cnc2N)ccc1O ; field requested: % inhibition, Replicate B
Resp: 36.72

Req: For COc1nc2c(CCN3CCC(NCc4ccc5c(c4)NCCO5)CC3)c(Cl)cnc2cc1F.Cl , what is its reported % inhibition, Replicate B?
Resp: 54.54
